Data provenance: ChEMBL document CHEMBL1811802

Test system: A549
TEST DESCRIPTION: Cytostatic activity against human A549 cells after 5 days by SRB assay
Assay type: functional
STUDY CONDITIONS: A549, 120 h

{"COMPOUND": "Nc1ncnc2c1c(-c1ccc[nH]1)cn2[C@@H]1O[C@H](CO)[C@@H](O)[C@H]1O", "READOUT UNITS": "nM", "VALUE RELATION SIGN": "=", "GI50": 160}
{"COMPOUND": "Nc1ncnc2c1c(-c1cc[nH]c1)cn2[C@@H]1O[C@H](CO)[C@@H](O)[C@H]1O", "READOUT UNITS": "nM", "VALUE RELATION SIGN": "=", "GI50": 5.3}
{"COMPOUND": "Nc1ncnc2c1c(-c1cn[nH]c1)cn2[C@@H]1O[C@H](CO)[C@@H](O)[C@H]1O", "READOUT UNITS": "nM", "VALUE RELATION SIGN": "=", "GI50": 192}
{"COMPOUND": "COc1cccc2c1C(=O)c1c(O)c3c(c(O)c1C2=O)C[C@@](O)(C(=O)CO)C[C@@H]3O[C@H]1C[C@H](N)[C@H](O)[C@H](C)O1 [DOXORUBICIN]", "READOUT UNITS": "nM", "VALUE RELATION SIGN": "=", "GI50": 16}
{"COMPOUND": "Nc1nc(Cl)nc2c1ncn2[C@@H]1O[C@H](CO)[C@@H](O)[C@@H]1F [CLOFARABINE]", "READOUT UNITS": "nM", "VALUE RELATION SIGN": "=", "GI50": 86}
{"COMPOUND": "Nc1ncnc2c1c(-c1ccccc1)cn2[C@@H]1O[C@H](CO)[C@@H](O)[C@H]1O", "READOUT UNITS": "nM", "VALUE RELATION SIGN": ">", "GI50": 20000}
{"COMPOUND": "Nc1ncnc2c1c(-c1ccco1)cn2[C@@H]1O[C@H](CO)[C@@H](O)[C@H]1O", "READOUT UNITS": "nM", "VALUE RELATION SIGN": "=", "GI50": 35}
{"COMPOUND": "COc1ccc(-c2cn([C@@H]3O[C@H](CO)[C@@H](O)[C@H]3O)c3ncnc(N)c23)cc1", "READOUT UNITS": "nM", "VALUE RELATION SIGN": "=", "GI50": 701}
{"COMPOUND": "Nc1ncnc2c1ccn2[C@@H]1O[C@H](CO)[C@@H](O)[C@H]1O [TUBERCIDIN]", "READOUT UNITS": "nM", "VALUE RELATION SIGN": "=", "GI50": 1}
